Some variants, each annotated with its measured self-cleavage.
B1: LINE1-mini (parent)
chain: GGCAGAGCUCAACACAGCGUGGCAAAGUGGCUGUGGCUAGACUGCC

# Variants of: B1
# Test: self-cleavage, relative activity (ratio to wild type); higher = more cleavage; in vitro, sequencing; the parent is a self-cleaving ribozyme
Readout Name: self-cleavage

{"Variant Key": "C13U U34C", "Observed Value": 0.14}
{"Variant Key": "G35C G36C", "Observed Value": 0.03}
{"Variant Key": "C10G G29A", "Observed Value": 0.1}
{"Variant Key": "G7A G22U", "Observed Value": 0.14}
{"Variant Key": "A12U G27C", "Observed Value": 0.22}
{"Variant Key": "C31A G44U", "Observed Value": 0.04}
{"Variant Key": "A6U A25U", "Observed Value": 0.72}
{"Variant Key": "A4G A25C", "Observed Value": 0.78}
{"Variant Key": "A6G", "Observed Value": 0.12}
